Measured pKd, listed per entry.
System Tested: Galectin-3 (Homo sapiens)
Sequence (P17931 whole entry): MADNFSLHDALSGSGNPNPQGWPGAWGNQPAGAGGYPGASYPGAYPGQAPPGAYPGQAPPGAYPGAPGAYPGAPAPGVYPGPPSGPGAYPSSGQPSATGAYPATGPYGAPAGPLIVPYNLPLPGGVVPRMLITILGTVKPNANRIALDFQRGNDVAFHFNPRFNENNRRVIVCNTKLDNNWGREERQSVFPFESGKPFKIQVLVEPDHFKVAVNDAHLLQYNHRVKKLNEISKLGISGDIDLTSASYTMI
Assay Explanation: Binding affinity to human Gal-3 expressed in Escherichia coli BL21 (DE3) cells by competitive fluorescence polarization assay
// scale note: pKd = -log10(conc_M); give the bare number

Known results for compounds:
> print(dat)
                                smiles.repr  reported.measurement
1  O=C(NS(=O)(=O)c1cc(Cl)c(Cl)s1)c1cc2cc(Oc3ccc(Cl)c(Cl)c3)ccc2[nH]1                  4.70
2  CCOC(=O)c1ccc(S(=O)(=O)NC(=O)c2cc3cc(Oc4ccc(Cl)c(Cl)c4)ccc3[nH]2)cc1                  4.77
3  O=C(NS(=O)(=O)c1ccc(Cl)cc1Cl)c1cc2cc(Oc3ccc(Cl)c(Cl)c3)ccc2[nH]1                  4.80
4  O=C(NS(=O)(=O)c1sccc1Cc1ccccc1)c1cc2cc(Oc3ccc(Cl)c(Cl)c3)ccc2[nH]1                  4.64
5  O=C(NS(=O)(=O)c1ccc(Cl)cc1Cl)c1cc2c(Oc3ccc(F)cc3)cccc2[nH]1                  3.65
6  O=C(NS(=O)(=O)Cc1noc2ccccc12)c1cc2cc(Oc3ccc(Cl)c(Cl)c3)ccc2[nH]1                  3.49

// pKd lookup, compound = O=C(NS(=O)(=O)c1cc(Cl)sc1Cl)c1cc2cc(Oc3ccc(Cl)c(Cl)c3)ccc2[nH]1 , result: 4.66

// field: pKd; key: O=C(NS(=O)(=O)c1ccccn1)c1cc2cc(Oc3ccc(Cl)c(Cl)c3)ccc2[nH]1 ; value = 3.68

====

System Tested: Galectin-8 (Homo sapiens)
Sequence (O00214 whole entry): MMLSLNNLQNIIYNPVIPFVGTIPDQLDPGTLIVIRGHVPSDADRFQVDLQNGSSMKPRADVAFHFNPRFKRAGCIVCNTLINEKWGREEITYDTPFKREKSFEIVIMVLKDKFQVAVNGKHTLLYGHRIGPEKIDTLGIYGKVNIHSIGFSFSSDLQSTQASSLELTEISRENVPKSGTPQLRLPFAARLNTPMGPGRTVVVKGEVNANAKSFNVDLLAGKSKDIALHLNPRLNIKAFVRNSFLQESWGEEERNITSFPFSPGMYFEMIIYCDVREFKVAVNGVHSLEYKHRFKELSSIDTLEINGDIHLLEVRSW
Assay Explanation: Binding affinity to N-terminal domain human Gal-8 expressed in Escherichia coli BL21 (DE3) cells by competitive fluorescence polarization assay
Form field: pKd (one value per entry).
Quick note: pKd means taking -log10 of the concentration in moles per liter.

The measured pKd that O=C(NS(=O)(=O)c1sccc1Cc1ccccc1)c1cc2cc(Oc3ccc(Cl)c(Cl)c3)ccc2[nH]1 showed for Galectin-8 (Homo sapiens) is 3.69

Value sought: pKd, system Galectin-8 (Homo sapiens), item O=C(NS(=O)(=O)c1ccc2ncsc2c1)c1cc2cc(Oc3ccc(Cl)c(Cl)c3)ccc2[nH]1 . Result: 3.68

Case CCOC(=O)c1ccc(S(=O)(=O)NC(=O)c2cc3cc(Oc4ccc(Cl)c(Cl)c4)ccc3[nH]2)cc1 , Galectin-8 (Homo sapiens), pKd recorded as 3.64

Summary: OC[C@H]1O[C@@H](S[C@@H]2O[C@H](CO)[C@H](O)[C@H](n3cc(-c4cccc(F)c4)nn3)[C@H]2O)[C@H](O)[C@@H](n2cc(-c3cccc(F)c3)nn2)[C@H]1O [OLITIGALTIN] , Galectin-8 (Homo sapiens), pKd = 3.55
